- System: Escherichia coli TOP10
- Test Details: shrunken log2 fold change of peptide-encoding DNA abundance (4.5 h post-induction vs induction); higher = less antimicrobial activity (less host growth inhibition)
- Run Conditions: time post-induction: 4.5 h; library: site-saturation at positions 5, 18, 19, 20
Provide the reported shrunken log2 fold change of each item.
The answer should be written as a number, with no unit following it.

## Task Give recorded shrunken log2 fold change. RRIRFRPPRLPRPRPRPIPVPRP
## Result 0.0949

## Task // fetch shrunken log2 fold change given entry RRIRYRPPRLPRPRPRPKADPRP
## Result 0.0864

## Task Identify measured shrunken log2 fold change associated with RRIRVRPPRLPRPRPRPPTSPRP
## Result 0.101

## Task Please give measured shrunken log2 fold change of the following entry: RRIRHRPPRLPRPRPRPSKDPRP
## Result -0.293

## Task Entry RRIRMRPPRLPRPRPRPSPTPRP needs its shrunken log2 fold change filled in; supply it.
## Result 1.15

## Task Tell us which shrunken log2 fold change value is on record for RRIRYRPPRLPRPRPRPTPTPRP
## Result 0.451

## Task Please give measured shrunken log2 fold change of the following entry: RRIRGRPPRLPRPRPRPNWKPRP
## Result 0.332

## Task Give recorded shrunken log2 fold change. RRIRHRPPRLPRPRPRPFKPPRP
## Result -0.163

## Task Return reported shrunken log2 fold change. Input sequence: RRIRFRPPRLPRPRPRPSAQPRP
## Result 0.24

## Task Provide one value: measured shrunken log2 fold change of RRIRYRPPRLPRPRPRPANCPRP
## Result -0.225

## Task Quick one: give measured shrunken log2 fold change for RRIRARPPRLPRPRPRPTCWPRP
## Result 0.651

## Task Give me measured shrunken log2 fold change, please, for this sequence: RRIRQRPPRLPRPRPRPSVCPRP
## Result -0.14

## Task Supply recorded shrunken log2 fold change for RRIRHRPPRLPRPRPRPMYNPRP here.
## Result -0.833

## Task Please report the measured shrunken log2 fold change for RRIRDRPPRLPRPRPRPQTFPRP
## Result 0.0361

## Task Please give measured shrunken log2 fold change of the following entry: RRIRTRPPRLPRPRPRPVHNPRP
## Result -0.159

## Task Assign shrunken log2 fold change to the following record: RRIRLRPPRLPRPRPRPRLNPRP
## Result -0.0854

## Task # return recorded shrunken log2 fold change for input RRIRHRPPRLPRPRPRPYYFPRP
## Result -0.178

## Task State its shrunken log2 fold change: RRIRYRPPRLPRPRPRPYDKPRP
## Result -1.24

## Task Determine from records and report shrunken log2 fold change for RRIRVRPPRLPRPRPRPIKFPRP
## Result 0.0613

## Task # return recorded shrunken log2 fold change for input RRIRMRPPRLPRPRPRPDFKPRP
## Result -0.11

## Task Look up and report measured shrunken log2 fold change for this entry: RRIRHRPPRLPRPRPRPPQPPRP
## Result 0.216

## Task Report measured shrunken log2 fold change; entry is RRIRCRPPRLPRPRPRPPKHPRP
## Result 0.203

## Task Give a short answer stating reported shrunken log2 fold change for RRIRWRPPRLPRPRPRPESNPRP .
## Result 0.535

## Task Supply shrunken log2 fold change value. Item: RRIRLRPPRLPRPRPRPELFPRP
## Result 0.303

## Task Give a short answer stating reported shrunken log2 fold change for RRIRIRPPRLPRPRPRPNRWPRP .
## Result -0.0394

## Task Give the reported shrunken log2 fold change for this sequence. RRIRGRPPRLPRPRPRPSAPPRP
## Result 0.711

## Task Write down shrunken log2 fold change measured for item RRIRHRPPRLPRPRPRPTRHPRP
## Result 0.36

## Task Return reported shrunken log2 fold change. Input sequence: RRIRERPPRLPRPRPRPHFWPRP
## Result 0.16

## Task Note down shrunken log2 fold change recorded for RRIRGRPPRLPRPRPRPFMLPRP
## Result -0.0447

## Task Specify shrunken log2 fold change for RRIRDRPPRLPRPRPRPWYGPRP and stop.
## Result -0.87

## Task Output shrunken log2 fold change of RRIRHRPPRLPRPRPRPRRPPRP
## Result 0.385

## Task Retrieve shrunken log2 fold change measured for RRIRLRPPRLPRPRPRPSWHPRP and print it.
## Result 0.25

## Task Identify the reported shrunken log2 fold change for the following entry. RRIRPRPPRLPRPRPRPKFYPRP
## Result -0.351

## Task Return value of shrunken log2 fold change for input RRIRGRPPRLPRPRPRPRYDPRP , no commentary.
## Result -0.057

## Task Tell me shrunken log2 fold change reported for RRIRNRPPRLPRPRPRPDVWPRP
## Result -0.0172

## Task Give the value of shrunken log2 fold change reported for the following: RRIRARPPRLPRPRPRPGADPRP
## Result 0.832

## Task Give the value of shrunken log2 fold change reported for the following: RRIRRRPPRLPRPRPRPIFIPRP
## Result -0.0166

## Task Could you please provide reported shrunken log2 fold change for RRIRVRPPRLPRPRPRPLCAPRP ? Thanks!
## Result 0.17

## Task Supply measured shrunken log2 fold change of RRIRRRPPRLPRPRPRPQEHPRP in your reply.
## Result 1.34

## Task Quick one: give measured shrunken log2 fold change for RRIRHRPPRLPRPRPRPQNAPRP
## Result -0.135

## Task Item RRIRSRPPRLPRPRPRPGGCPRP : provide shrunken log2 fold change
## Result 0.304

## Task Please supply the value of reported shrunken log2 fold change for the item RRIRFRPPRLPRPRPRPWRVPRP
## Result 0.0748

## Task Return the recorded shrunken log2 fold change value; entry: RRIRFRPPRLPRPRPRPMHCPRP
## Result -0.253

## Task # return recorded shrunken log2 fold change for input RRIRYRPPRLPRPRPRPMKHPRP
## Result -0.495

## Task Report measured shrunken log2 fold change; entry is RRIRARPPRLPRPRPRPRWKPRP
## Result 0.462

## Task Please report shrunken log2 fold change for the following sequence: RRIRHRPPRLPRPRPRPFHLPRP
## Result -0.438

## Task Return shrunken log2 fold change for the following sequence: RRIRHRPPRLPRPRPRPGINPRP
## Result -0.422

## Task Specify shrunken log2 fold change for RRIRGRPPRLPRPRPRPLKAPRP and stop.
## Result 0.0177

## Task Read the entry RRIRIRPPRLPRPRPRPDNTPRP and write its reported shrunken log2 fold change.
## Result -0.947

## Task Quick one: give measured shrunken log2 fold change for RRIRFRPPRLPRPRPRPRRSPRP
## Result 0.0713

## Task Please report the measured shrunken log2 fold change for RRIRQRPPRLPRPRPRPPRPPRP
## Result 0.752

## Task Look up shrunken log2 fold change of RRIRNRPPRLPRPRPRPETIPRP and report it.
## Result -0.0777

## Task Item RRIRMRPPRLPRPRPRPFDQPRP : provide shrunken log2 fold change
## Result 0.00237

## Task Entry RRIRHRPPRLPRPRPRPCCDPRP needs its shrunken log2 fold change filled in; supply it.
## Result -0.228

## Task Please look at this sequence and report its shrunken log2 fold change: RRIRCRPPRLPRPRPRPAWYPRP
## Result -0.0055

## Task Please supply the value of reported shrunken log2 fold change for the item RRIRQRPPRLPRPRPRPTEGPRP
## Result -0.0332

## Task Answer with the recorded shrunken log2 fold change of RRIRLRPPRLPRPRPRPCQPPRP only.
## Result -0.0919

## Task Report shrunken log2 fold change for RRIRKRPPRLPRPRPRPALTPRP
## Result 0.622

## Task Indicate its recorded shrunken log2 fold change; the sequence in question is RRIRNRPPRLPRPRPRPCTEPRP
## Result -0.347

## Task Quick one: give measured shrunken log2 fold change for RRIRHRPPRLPRPRPRPHMKPRP
## Result 0.181

## Task Hello, please tell me recorded shrunken log2 fold change for this one: RRIRMRPPRLPRPRPRPPWYPRP
## Result 0.117

## Task Give reported shrunken log2 fold change value for RRIRERPPRLPRPRPRPKKVPRP
## Result -0.178

## Task Give the reported shrunken log2 fold change for this sequence. RRIRVRPPRLPRPRPRPSKDPRP
## Result -0.563

###

- Test system: Escherichia coli TOP10;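 note: peptides expressed intracellularly from a pBAD plasmid library in pooled LB shake-flask culture, induced with 0.3% L-arabinose, DNA abundance read by NGS, three biological replicates, DESeq2 with apeglm shrinkage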
- Test Details: shrunken log2 fold change of peptide-encoding DNA abundance (4.5 h post-induction vs induction); higher = less antimicrobial activity (less host growth inhibition)
- Run Conditions: time post-induction: 4.5 h; library: site-saturation at positions 5, 18, 19, 20
The label depends only on shrunken log2 fold change: 1 (yes) if it is at least 0.1, 0 (no) if it is smaller.

## Task Tell me whether shrunken log2 fold change is at least 0.1 here: RRIRWRPPRLPRPRPRPNFLPRP
## Result 0 (no)

## Task Tell me whether shrunken log2 fold change is at least 0.1 here: RRIRSRPPRLPRPRPRPVLEPRP
## Result 0 (no)

## Task Form field: shrunken log2 fold change at least 0.1? Entry: RRIRLRPPRLPRPRPRPGWFPRP
## Result 1 (yes)

## Task shrunken log2 fold change >= 0.1 for RRIRTRPPRLPRPRPRPAYEPRP ?
## Result 1 (yes)

## Task Decide: is the reported value of shrunken log2 fold change for RRIRRRPPRLPRPRPRPWGHPRP equal to or greater than 0.1?
## Result 0 (no)

## Task Given RRIRLRPPRLPRPRPRPYRDPRP , state whether its shrunken log2 fold change is at least 0.1.
## Result 0 (no)

## Task Evaluate RRIRARPPRLPRPRPRPLDGPRP : shrunken log2 fold change at minimum 0.1?
## Result 1 (yes)

## Task Record RRIRPRPPRLPRPRPRPGYIPRP ; criterion: shrunken log2 fold change no lower than 0.1. Met?
## Result 0 (no)
